molecular target: T1, monovalent hVISTA-ECD with polyhistidine tail (SEQ ID NO: 325) (human, UniProt Q9H7M9 33-193); experiment: SPR, mAb captured on Protein A chip, hVISTA injected, PBST pH 7.4, 37 C
T1 construct: also called hVISTA-ECD 6-His tag; human VISTA
T1 sequence (Q9H7M9 other isoform, or with tags, fused parts or gaps limits assumed): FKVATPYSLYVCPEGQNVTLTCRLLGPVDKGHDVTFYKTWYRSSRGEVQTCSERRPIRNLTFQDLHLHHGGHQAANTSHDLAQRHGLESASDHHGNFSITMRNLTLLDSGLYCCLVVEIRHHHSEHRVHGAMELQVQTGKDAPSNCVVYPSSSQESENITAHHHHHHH
pKd: −log10 of the molar value.
MEASURED QUANTITY: pKd

- P1-077865 (P1-068748 H31S) (antibody, V domains shown, Reversion mutant of P1-068748 (Kabat names); captured on a Protein A chip) VH: QVQLVESGGGVVQPGRSLRLSCAASGFTFSSHAMHWVRQAPGKGLEWVAIIWYDGSNDDYADSVKGRFTISRDNSKNTLYLQMNSLRAEDTAVYYCARDSGFYDSYYFDYWGQGTLVTVSS VL: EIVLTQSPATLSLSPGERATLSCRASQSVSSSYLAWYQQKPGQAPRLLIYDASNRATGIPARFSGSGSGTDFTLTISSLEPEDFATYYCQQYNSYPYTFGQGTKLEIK: 6.39
- P1-077877 (P1-068748 H32Y D57K) (antibody, V domains shown, Reversion mutant of P1-068748 (Kabat names); captured on a Protein A chip) VH: QVQLVESGGGVVQPGRSLRLSCAASGFTFSHYAMHWVRQAPGKGLEWVAIIWYDGSNKDYADSVKGRFTISRDNSKNTLYLQMNSLRAEDTAVYYCARDSGFYDSYYFDYWGQGTLVTVSS VL: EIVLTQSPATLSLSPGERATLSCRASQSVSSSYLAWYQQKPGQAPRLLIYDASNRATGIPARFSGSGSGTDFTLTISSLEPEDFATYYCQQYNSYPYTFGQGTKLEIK: 6.57
- P1-077889 (P1-068748 H32Y D58Y) (antibody, V domains shown, Reversion mutant of P1-068748 (Kabat names); captured on a Protein A chip) VH: QVQLVESGGGVVQPGRSLRLSCAASGFTFSHYAMHWVRQAPGKGLEWVAIIWYDGSNDYYADSVKGRFTISRDNSKNTLYLQMNSLRAEDTAVYYCARDSGFYDSYYFDYWGQGTLVTVSS VL: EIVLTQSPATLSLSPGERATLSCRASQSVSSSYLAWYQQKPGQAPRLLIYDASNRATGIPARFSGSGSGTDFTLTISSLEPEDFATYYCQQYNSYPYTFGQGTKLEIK: 5.62
- P1-077867 (P1-068748 H32Y) (antibody, V domains shown, Reversion mutant of P1-068748 (Kabat names); captured on a Protein A chip) VH: QVQLVESGGGVVQPGRSLRLSCAASGFTFSHYAMHWVRQAPGKGLEWVAIIWYDGSNDDYADSVKGRFTISRDNSKNTLYLQMNSLRAEDTAVYYCARDSGFYDSYYFDYWGQGTLVTVSS VL: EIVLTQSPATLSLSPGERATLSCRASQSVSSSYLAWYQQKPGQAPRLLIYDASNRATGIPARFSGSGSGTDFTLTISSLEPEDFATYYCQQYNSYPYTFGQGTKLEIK: 6.64
